target: cloned human M2 receptor (Homo sapiens, UniProt P08172); experiment: hM2 receptor GTPγS binding; conditions: CHO membranes expressing hM2, [35S]GTPγS binding
Sequence (P08172 whole entry): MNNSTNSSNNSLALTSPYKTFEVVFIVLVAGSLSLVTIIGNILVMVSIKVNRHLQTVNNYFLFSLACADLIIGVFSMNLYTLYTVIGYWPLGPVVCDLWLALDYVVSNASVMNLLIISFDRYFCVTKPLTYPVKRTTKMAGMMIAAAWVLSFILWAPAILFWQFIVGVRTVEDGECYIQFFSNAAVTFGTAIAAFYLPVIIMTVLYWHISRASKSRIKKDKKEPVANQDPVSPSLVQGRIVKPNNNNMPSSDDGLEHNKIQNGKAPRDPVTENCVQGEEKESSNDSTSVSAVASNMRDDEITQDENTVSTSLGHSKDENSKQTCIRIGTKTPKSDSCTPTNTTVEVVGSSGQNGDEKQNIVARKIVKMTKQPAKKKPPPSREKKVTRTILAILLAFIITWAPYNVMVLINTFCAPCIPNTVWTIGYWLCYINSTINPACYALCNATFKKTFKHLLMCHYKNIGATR
pEC50: −log10 of the molar value.
Reported endpoint: pEC50

# annotated cases, reported pEC50 shown
# returns recorded pEC50 (system: cloned human M2 receptor (Homo sapiens, UniProt P08172)) for CCCOC1CCC(N2CCC(N3C(=O)NC[C@H]4CCCC[C@@H]43)CC2)CC1 (single isomer, unassigned) 5.60

# returns recorded pEC50 (system: cloned human M2 receptor (Homo sapiens, UniProt P08172)) for CCOCC1CC(N2CCC(N3C(=O)CO[C@H]4CCCC[C@@H]43)CC2)C1 (single isomer, unassigned) 5.30

# returns recorded pEC50 (system: cloned human M2 receptor (Homo sapiens, UniProt P08172)) for CC(C)OCC1CCC(N2CCC(N3C(=O)CO[C@H]4CCCC[C@@H]43)CC2)CC1 (single isomer, unassigned) [Example 18] 5.46

1: CC(C)OCC1CCC(N2CCC(N3C(=O)NC[C@H]4CCCC[C@@H]43)CC2)CC1 (single isomer, unassigned) [Example 04]
2: O=C1NC[C@H]2CCCC[C@@H]2N1C1CCN(C2CCC(COCC(F)F)CC2)CC1 (single isomer, unassigned) [Example 51]
3: CCOC[C@H]1CC[C@@H](N2CCC(N3C(=O)CO[C@H]4CCCC[C@@H]43)CC2)C1
# rank_down: sort by pEC50, max first Form field (ranking): labels in requested order. 1, 3, 2

---

Molecular target: hM5 (human Muscarinic receptor subtype 5) (Homo sapiens, UniProt P08912)
Sequence (P08912 1-532): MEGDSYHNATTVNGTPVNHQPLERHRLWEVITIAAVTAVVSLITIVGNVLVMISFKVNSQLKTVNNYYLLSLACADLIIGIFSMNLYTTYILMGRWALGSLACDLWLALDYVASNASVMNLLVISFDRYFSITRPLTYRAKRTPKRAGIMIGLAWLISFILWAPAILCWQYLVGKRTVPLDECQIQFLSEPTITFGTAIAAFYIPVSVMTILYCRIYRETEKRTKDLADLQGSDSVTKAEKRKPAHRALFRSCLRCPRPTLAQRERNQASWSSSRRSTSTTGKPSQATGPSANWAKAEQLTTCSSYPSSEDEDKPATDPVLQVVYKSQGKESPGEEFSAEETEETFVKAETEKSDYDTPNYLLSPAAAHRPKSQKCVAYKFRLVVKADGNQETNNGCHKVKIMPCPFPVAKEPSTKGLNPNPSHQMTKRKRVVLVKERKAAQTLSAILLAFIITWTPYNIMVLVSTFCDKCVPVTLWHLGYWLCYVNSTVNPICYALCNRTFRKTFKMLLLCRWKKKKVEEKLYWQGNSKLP
Test: Human M5 calcium mobilization FLIPR assay
Conditions: hM5 expressed in CHO cells, intracellular Ca2+ release (FLIPR)
pEC50: −log10 of the molar value.
Reported endpoint: pEC50

So what does the record say about pEC50 for O=C1CO[C@H]2CCCC[C@@H]2N1C1CCN(C2CCC(COCCF)CC2)CC1 (single isomer, unassigned) [Example 25] ? < 4.40

So what does the record say about pEC50 for CCOC[C@H]1CC[C@@H](N2CCC(N3C(=O)CO[C@H]4CCCC[C@@H]43)CC2)C1 ? < 5.37

So what does the record say about pEC50 for CCOCC1CCC(N2CCC(N3C(=O)NC[C@H]4CCCC[C@@H]43)CC2)CC1 (mixture of isomers) ? 7.16

Next compound, please.
So what does the record say about pEC50 for CC(C)OCC1CCC(N2CCC(N3C(=O)NC[C@H]4CCCC[C@@H]43)CC2)CC1 (single isomer, unassigned) [Example 03] ? < 4.84

Values compiled from patent US20090275574A1.
